Target: T1, 4H87-AA
T1 chain: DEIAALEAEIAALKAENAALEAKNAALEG
Assay: two-hybrid library CCmax;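 further: natural log of median RNA to DNA barcode read ratio; higher means stronger binding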
Reported interaction score values follow for various binders

// interaction score value for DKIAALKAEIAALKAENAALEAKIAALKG [4H2646-AA] : 2.43

// interaction score value for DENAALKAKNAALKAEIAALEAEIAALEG [4H1985-AA] : -1.37

// interaction score value for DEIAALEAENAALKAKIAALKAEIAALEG [4H233-AA] : -1.84

// interaction score value for DEIAALEAEIAALKAENAALEAKNAALEG [4H87-AA] : -0.571
